Dear all, I have gathered published IC50 values for Receptor-interacting serine/threonine-protein kinase 1 (Homo sapiens); the list follows.

NC(=O)c1coc(N2CCC(C(=O)N3N=CC[C@H]3c3ccccc3)CC2)n1; 1 to 31.6 nM

Would you be so kind as to report IC50 for each listed record?
1. CC(C)C(=O)Nc1nc2ccc(-c3ccc4[nH]cc(C(=O)N[C@@H](C)c5cccc(F)c5)c4c3)cc2s1
2. CC(C)C(=O)Nc1nc2cc(-c3ccc4c(c3)c(C(=O)N[C@@H](C)c3ccncc3)cn4C)ccn2n1
3. O=C(C1CCN(c2ccc(C(F)(F)F)nn2)CC1)N1N=CC[C@H]1c1ccccc1
4. Cc1cc(=O)c(C(=O)Nc2cc(Cl)c3c(c2)NC(=O)C3)nn1-c1ccccc1
5. C[C@H](NC(=O)c1cn(C)c2ccc(-c3ccn4nc(NC(=O)N5CC[C@@H](O)C5)nc4c3)cc12)c1cccc(F)c1
6. O=C(C1CCN(c2ncc(F)c(OCCO)n2)CC1)N1N=CC[C@H]1c1ccccc1
7. Cn1cc(-c2ccc(F)cc2CN2CCc3ncc(-c4ccn5nc(N)nc5c4)cc3C2=O)cn1

1: 10 to 100 nM; 2: 10 to 100 nM; 3: 1 to 31.6 nM; 4: 2250 nM; 5: 10 to 100 nM; 6: 1 to 31.6 nM; 7: 72 nM

Would you be so kind as to report IC50 for each listed record?
1. O=C1c2nn(Cc3cc(F)ccc3F)c(Br)c2CCN1c1cccc(Cl)c1F
2. N#Cc1nccc(N2CCC(C(=O)N3N=CC[C@H]3c3cncc(F)c3)CC2)n1
3. C[C@@H](NC(=O)c1c[nH]c2ccc(-c3ccc4nc(NC(=O)C5CC5)sc4c3)cc12)c1cccc(F)c1

17.4 nM
1 to 31.6 nM
100 to 1000 nM

Would you be so kind as to report IC50 for each listed record?
1. Cc1cc(=O)c(C(=O)Nc2c(C(C)C)cccc2C(C)C)nn1-c1ccccc1
2. N#Cc1cc(N2CC[C@H](C(=O)N3N=CC[C@H]3c3cncc(F)c3)C3(CC3)C2)ncn1 (single isomer, unassigned)
3. CC(C)C(=O)Nc1nc2cc(-c3ccc4c(c3)c(C(=O)NC(C)c3ccccn3)cn4C)ccn2n1 (stereo not drawn)

1190 nM
50 nM
10 to 100 nM

Would you be so kind as to report IC50 for each listed record?
1. C[C@H](NC(=O)c1cn(C)c2ccc(-c3ccn4nc(NC(=O)[C@H]5CCCN5)nc4c3)cc12)c1cccc(F)c1
2. NC(=O)c1cncc(N2CCC(C(=O)N3N=CC[C@H]3c3ccccc3)CC2)n1
3. O=C(C1CCN(c2ncccn2)CC1)N1N=CCC1c1cncc(F)c1 (stereo not drawn)
4. Cn1cc(C(=O)N[C@H]2CCCc3ccccc32)c2cc(-c3ccc4nc(NC(=O)C5CC5)cn4n3)ccc21
5. O=C(NC1CCc2ccc(N3CC4(CCOCC4)C3)cc2NC1=O)c1n[nH]c(Cc2ccccc2)n1 (racemic)

< 1 nM
1 to 31.6 nM
~31.6 nM
100 to 1000 nM
414 nM
